details: rat, in vivo
Each item that follows carries a reported PcS.
Quick reminder: number only, in mL/s/g, skip the unit.

The cases that follow already have their PcS on record.
{"MOLECULE SMILES": "CCCCO", "SCALE UNIT": "mL/s/g", "PcS": 0.15}
{"MOLECULE SMILES": "O", "SCALE UNIT": "mL/s/g", "PcS": 0.029}
{"MOLECULE SMILES": "OCCO", "SCALE UNIT": "mL/s/g", "PcS": 0.00057}

Now turn to the next compound.
What does the data say about its PcS? Entry: CC(C)(C)OC(=O)CCCc1ccc(N(CCCl)CCCl)cc1
32.1

----------
assay: In situ rat brain perfusion (brain uptake Kin, extraction E, BBB PS); conditions: intrinsic PS of neutral solute, PoS = PcS/fn; flow 0.1–[…]
Use class 1 when the recorded PoS is no lower than 0.3 mL/s/g; use class 0 when it is lower.

Here are 3 compounds together with their reported answers.
{"COMPOUND": "O=C(CO)[C@@H](O)[C@H](O)[C@H](O)CO", "ASSIGNED CLASS": "class 0"}
{"COMPOUND": "CNC(N)=O", "ASSIGNED CLASS": "class 0"}
{"COMPOUND": "O=C[C@@H](O)[C@H](O)[C@@H](O)[C@@H](O)CO", "ASSIGNED CLASS": "class 0"}

Given the entry NC(=O)CI [Iodoacetamide] , answer whether its PoS meets or surpasses 0.3 mL/s/g.
class 0

# bool: PoS of CO >= 0.3 mL/s/g
class 0

Assess whether reported PoS for Nc1ccccc1C(=O)O sits at 0.3 mL/s/g or higher.
class 1

Is reported PoS greater than or equal to 0.3 mL/s/g here: CCCCNS(=O)(=O)c1ccccc1 [N-butyl-benzene sulfonamide]
class 1

Quick check, PoS >= 0.3 mL/s/g? CC(C)NC(C)Cc1ccc(I)cc1 (centres unmarked)
class 1

Is it the case that CC(O)CO (centres unmarked) has PoS reaching or exceeding 0.3 mL/s/g?
class 0

Decide: PoS of OCCCO >= 0.3 mL/s/g?
class 0

----------
We begin with a simple list: items and their reported Log Po.
assay: In situ rat brain perfusion (brain uptake Kin, extraction E, BBB PS); conditions: Po in cm/s
Lab note: record just the number, no unit beside it.

{"COMPOUND": "CC(=O)N[C@@H](CS)C(=O)O", "DATA VALUE": "−7.74"}
{"COMPOUND": "NC(=O)CI [Iodoacetamide]", "DATA VALUE": "−4.04"}
{"COMPOUND": "CO", "DATA VALUE": "−3.56"}
{"COMPOUND": "O=C(CO)[C@@H](O)[C@H](O)[C@H](O)CO", "DATA VALUE": "−7.24"}

# lookup: Log Po of O=C1Nc2ccc(Cl)cc2C(c2ccccc2Cl)=NC1O (stereo not shown)
−2.52

Any idea what Log Po was measured for O=C[C@@H](O)[C@H](O)[C@@H](O)[C@@H](O)CO ?
−6.90

Name the recorded Log Po for OCCCO .
−4.29

----------
settings: calculated at brain blood flow […] and rat serum fu
PROPERTY LABEL: Brain Kin (mL/s/g)
Field: numeric (mL/s/g). Do not append units.

These recorded examples may help you get a feel for the data.
{"MOLECULE": "COc1ccc2c(c1)c(CC(=O)O)c(C)n2C(=O)c1ccc(Cl)cc1 [Indomethacin]", "Brain Kin [mL/s/g]": "4.37e-05"}
{"MOLECULE": "OC[C@@H](O)[C@@H](O)[C@H](O)[C@H](O)CO [Mannitol]", "Brain Kin [mL/s/g]": "8.8e-06"}
{"MOLECULE": "CNC(N)=O [Methylurea]", "Brain Kin [mL/s/g]": 0.000563}
{"MOLECULE": "Cn1nnc2c(C(N)=O)ncn2c1=O [Temozolamide]", "Brain Kin [mL/s/g]": 0.00464}
{"MOLECULE": "CCO [Ethanol]", "Brain Kin [mL/s/g]": 0.0195}

Please report the recorded Brain Kin for CNCCC(Oc1ccc(C(F)(F)F)cc1)c1ccccc1 (stereo not drawn) [Fluoxetine] .
0.0105

Sample O=C(O)c1cccnc1C(=O)O [Quinolinic acid] — what was its Brain Kin?
0.00019

What measured Brain Kin goes with OCC(O)CO [Glycerol] ?
1.7e-06

Field request: Brain Kin | item: O=C(CO)[C@@H](O)[C@H](O)[C@H](O)CO [Fructose]
5.74e-06

May I ask what Brain Kin has been recorded for CC(O)CO (stereo not drawn) [1,2-Propanediol] ?
0.0112

What value of Brain Kin has been reported for the following molecule? OCCCCCCO [1,6-Hexanediol]
0.0182

Which measured Brain Kin value corresponds to CC(C(=O)O)c1ccc(-c2ccccc2)c(F)c1 (stereo not drawn) [Flurbiprofen] ?
0.000144
